- Assayed Target: T1, human PDGF-BB (platelet derived growth factor B homodimer) (human, UniProt P01127)
- T1 construct: Platelet derived growth factor B, human, homodimer, bought from PeproTech; the printed catalogue number may stand for 100-14B; source: bought: PeproTech, Catalog 100-148
- T1 sequence (P01127 82-190): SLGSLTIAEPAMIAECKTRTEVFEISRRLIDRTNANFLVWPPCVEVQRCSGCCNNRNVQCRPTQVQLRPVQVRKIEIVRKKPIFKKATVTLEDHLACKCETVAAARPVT
- Protocol Summary: SPR; Biacore T200, off-rate screen; antibody captured (~70 to 100 RU) by anti-human IgG amine-coupled to a CM5 chip; human PDGF-BB injected at a single 2.5 nM for 170 s, dissociation 300 s; HBS-EP+ N (10 mM HEPES, 500 mM NaCl, 3 mM EDTA, 0.05% Tween20, pH 7.4); 25 C
- Condition Set: both partners purified
Here, each record is paired with measured koff data.
Write the value in s⁻¹ as a bare number.

Binder | Obs Value
R2-013 (antibody, V domains shown, as the VH of m20 (R2-001_HC) with D52aN; as the VL of m20 (R2-001_LC); only the variable regions are written; source: HEK293, transient, purified from conditioned medium (protein A, TMAE, HIC)) VH: EVQLLQSGGGLVKPGGSLRLSCAASGFTFSSYAMSWVRQAPGKGLEWVSYISNDGSLKYYADSVKGRFTISRDNSKNTLYLQMNSLRAEDTAVYYCARHPYWYGGQLDLWGQGTLVTVSS VL: SYVLTQPPSVSVAPGKTARITCSGDSLGSYFVHWYQQKPGQSPVLVIYDDSKRPSGIPERFSGSNSGNTATLTISGTQAMDEADYYCSAFTHNSDVFGGGTKLTVL | 0.000344
R1-016 (antibody, V domains shown, only the variable regions are written; source: HEK293, transient, purified from conditioned medium (protein A, TMAE, HIC)) VH: EVQLLQSGGGLVKPGGSLRLSCAASGFTFSSYAMSWVRQAPGKGLEWVSYISDDGSLKYYADSVKGRFTISRDNSKNTLYLQMNSLRAEDTAVYYCARHPYWYGGQLDLWGQGTLVTVSS VL: SYELTQPPSVSVSPGQTASITCSGDSLGSYFVHWYQQKPGQSPVLVIYDDSKRPSGIPERFSGSNSGNTATLTISGTQAMDEADYYCSAFTHNSDVFGGGTKLTVL | 0.000289
R1-017 (antibody, V domains shown, only the variable regions are written; source: HEK293, transient, purified from conditioned medium (protein A, TMAE, HIC)) VH: EVQLLESGGGLVKPGGSLRLSCAASGFTFSSYAMSWVRQAPGKGLEWVSYISDDGSLKYYADSVKGRFTISRDNSKNTLYLQMNSLRAEDTAVYYCARHPYWYGGQLDLWGQGTLVTVSS VL: SYELTQPPSVSVSPGQRASITCSGDSLGSYFVHWYQQKPGQSPVLVIYDDSNRPSGIPERFSGSNSGNTATLTISGTQAMDEADYYCSAFTHNSDVFGGGTKLTVL | 0.000471
R2-004 (antibody, V domains shown, as the VH of m20 (R2-001_HC); as the VL of m20 (R2-001_LC) with Y49H (Kabat); only the variable regions are written; source: HEK293, transient, purified from conditioned medium (protein A, TMAE, HIC)) VH: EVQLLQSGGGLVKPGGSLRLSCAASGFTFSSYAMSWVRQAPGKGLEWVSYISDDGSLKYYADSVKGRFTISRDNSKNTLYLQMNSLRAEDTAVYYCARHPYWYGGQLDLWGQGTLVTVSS VL: SYVLTQPPSVSVAPGKTARITCSGDSLGSYFVHWYQQKPGQSPVLVIHDDSKRPSGIPERFSGSNSGNTATLTISGTQAMDEADYYCSAFTHNSDVFGGGTKLTVL | 0.000439

Next binder, please.
Please fill in: koff reported for R1-006 (antibody, V domains shown, VL of AB-001 (AB-001_LC); only the variable regions are written; source: HEK293, transient, purified from conditioned medium (protein A, TMAE, HIC)) VH: EVQLLESGGGLVQPGGSLRLSCAASGFTFSSYAMSWVRQAPGKGLEWVSYISDDGSLKYYADSVKGRFTISRDNSKNTLYLQMNSLRAEDTAVYYCARHPYWYGGRLDLWGQGTLVTVSS VL: SYELTQPPSVSVSPGQTASITCSGDSLGSYFVHWYQQKPGQSPVLVIYDDSNRPSGIPERFSGSNSGNTATLTISGTQAMDEADYYCSAFTHNSDVFGGGTKLTVL = 0.000314
